ASSAY_NAME: growth inhibitors of H69AR lung tumor, primary screen, human, duplicate replicates (AID 580);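 note: 100% = mean luminescence of untreated wells and 0% = no signal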
CONDITION_LABEL: H69AR lung tumor cells viability, ATP luminescence, 72 h; at 10 µM; active compounds read low
READOUT: viability (%)
Field: numeric (%). Do not append units.

input: Can you look up the measured viability of COc1cccc(C(=O)Nc2cnc(NC(=O)c3ccco3)cc2C)c1 for me?
output: 86.6

input: Fill in the blank: the reported viability of O=c1c2ccccc2nc(SCc2cn3ccsc3n2)n1-c1ccc(F)cc1 is ____.
output: 102

input: Please look up its viability: COc1ccc(C)cc1S(=O)(=O)N(C)CC(=O)Nc1ccc2c(c1)OCO2
output: 89.2

input: // viability lookup, key: CCOC(=O)c1sc(NC(=O)COC(=O)Cn2cnc3ccccc32)c(C(=O)OCC)c1C
output: 71.2

We next turn to a different compound, shown below.
input: Tell me the measured viability of CCCC1O[C@@H]2C[C@H]3[C@@H]4CCC5=CC(=O)C=C[C@]5(C)[C@H]4[C@@H](O)C[C@]3(C)[C@]2(C(=O)CO)O1 (stereo not given in full) , please.
output: 79.6
